Cited source: patent US20230382979A1

Could you please report measured pIC50 for the items listed next?
# Target of assay: Receptor-binding domain (RBD) of the SARS-CoV-2 spike protein, WA01/2020 strain (SARS-CoV-2, WA01/2020 strain, UniProt P0DTC2 319-541)
# Protocol details: ELISA, antibody blocks RBD binding to human ACE2
Formally, pIC50 is defined as -log10 of the concentration c, with c in mol/L.

Problem: Could you share which pIC50 value was measured for antibody 2075 (antibody, V domains shown) VH: QVQLVQSGAEVKKPGSSVKVSCTASGGTFSIYAFSWVRQAPGQGLEWMGGIIPISGTAGYAQKFQGRVTITADESTSTAYMELSSLRSEDTAIYYCARKYRYCSGSRCYTYFDYWGQGTLVTVSS VL: DIQMTQSPSSLSASVGDRVTITCRASQSISSFLNWYQQKPGKAPKLLIYAASSLQSGVPSRFSGSGSGTDFTLTISSLQPEDSATYYCQQSYSTITFGQGTRLEIK ?
Result: 9.03

Problem: Field request: pIC50 | item: antibody 3091 (antibody, V domains shown) VH: QMQLVQSGPEVKKPGTSVKVSCKASGFTFSSSAVQWVRQARGQGLEWIGWIVVGSGNANYAQKLQERVSITRDMSTSTAYMELSSLRPEDTAVYYCAAPHCSRTICHDGFDMWGQGTMVTVSS VL: EIVLTQSPGTLSLSPGERATLSCRASQSVRSSYLAWYQQKPGQAPRLLMFVASSRATGIPDRFSGSGSGTDFTLTISRLEPEDFAVYYCQQYDTSPWTFGQGTKVEIK
Result: 9.25

Problem: Any idea what its pIC50 is? The binder is antibody 1589 (antibody, V domains shown) VH: EVQLVESGGGLIQVGGSLRLSCAASGLTVTSNYMNWVRQGPGKGLEWVSLIYSGGTTYYADSVKGRFTISRDDSKNTLYLQMNSLRAEDTAVYYCARPIVGARSGMDVWGQGTAVTVSS VL: DIQMTQSPSSLSASVGDRVTITCQASQDINKYLNWYQQKPGKAPKLLIYDASNLETGVPSRFSGSGSGTDFTFTISSLQPEDLATYYCHQFDNLPGTFGGGTKVEIK
Result: 9.28
